- target_or_system: Mu-type opioid receptor (Homo sapiens) (UniProt P35372)
- Sequence (P35372 whole entry): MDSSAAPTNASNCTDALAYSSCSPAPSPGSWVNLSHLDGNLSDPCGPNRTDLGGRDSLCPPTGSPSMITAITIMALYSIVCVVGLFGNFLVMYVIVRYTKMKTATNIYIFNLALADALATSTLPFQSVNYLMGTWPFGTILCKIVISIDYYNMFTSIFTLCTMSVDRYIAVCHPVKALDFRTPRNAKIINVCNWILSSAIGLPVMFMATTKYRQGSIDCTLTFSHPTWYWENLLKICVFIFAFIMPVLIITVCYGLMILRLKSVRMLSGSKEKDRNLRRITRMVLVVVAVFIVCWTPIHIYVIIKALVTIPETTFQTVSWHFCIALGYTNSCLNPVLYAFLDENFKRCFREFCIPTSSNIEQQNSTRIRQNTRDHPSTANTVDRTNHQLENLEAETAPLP
- condition_set: Compound concentration 10 µM; call rule not given here
Possible outcomes: yes (1) (active), no (0) (inactive)

* CCc1nn2c(C)cc(C)nc2c1Cc1ccc(-c2nnc(C3CCNCC3)o2)cc1 | yes (1)
* Cc1cc(NC(=O)Nc2ccc(N(C)C)cc2)c2cc(F)cc(F)c2n1 | no (0)
* CNC[C@H](O)c1cccc(O)c1 | no (0)
* Cc1cc(C)cc(-c2cnc3cc(Cl)c(-c4cccc(O)c4)cc3c2OCCCN)c1 | yes (1)
* Cc1c(C2=CCN(C(=O)N(C)C(C)C)CC2)nnn1-c1cccnc1F | no (0)
* COc1cccc(-c2c(C)n(Cc3c(F)cccc3C(F)(F)F)c(=O)n(C[C@H](NCCCC(=O)O)c3ccccc3)c2=O)c1F | no (0)
* COc1ccc(S(=O)(=O)N2c3ccc(Cl)cc3[C@](O)(c3ccccc3Cl)[C@@H]2C(=O)N2CCC[C@H]2C(N)=O)cc1OC | no (0)
* NCCc1cn(S(=O)(=O)c2c(Cl)nc3sccn23)c2ccccc12 | no (0)
* COc1cc(-n2cnc3cc(-c4ccc(Cl)cc4)sc3c2=O)ccc1OCCN1CCCC1 | no (0)
